Assay: doxorubicin toxicity protection in MRP-1 cells – H69AR cells, CellTiter-Glo, duplicate, MRP-1 activator project, pilot screen (AID 807);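 note: compound pretreatment 18-22 h then 72 h combined with doxorubicin; 0% = doxorubicin alone and 100% = vehicle without doxorubicin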
Settings: H69AR viability with doxorubicin, CellTiter-Glo luminescence; at 10 µM; active compounds read high
property.label: viability increase (%)
Answer format: numeric, % implied, no suffix.

The following compounds have reported results that may help.
INSERT INTO results (compound, test_value) VALUES
  ('CC1CCc2nc3ccc(S(=O)(=O)N4CCC(C(=O)NC5CCCC5)CC4)cc3c(C(=O)O)c2C1 (stereo unspecified)', -2.1),
  ('COc1ccc(C(=O)CCC(=O)O)cc1', -0.14),
  ('CC(NC(=O)C1CCC1)c1ccc2c(c1)OCO2 (stereo unspecified)', -2.08),
  ('CN(C)CCCN1C(=O)c2oc3ccc(Cl)cc3c(=O)c2C1c1cccnc1 (stereo unspecified)', -1.8);

Write down viability increase measured for item N#Cc1cnc2sc3ccccc3n2c1=N
-1.27

Fill in viability increase for record COc1ccc(N(CC(=O)Nc2cccc(SC)c2)S(C)(=O)=O)cc1Cl
-6.18

Report viability increase, nothing else, for this compound: O=C(CCNS(=O)(=O)c1cccc2nsnc12)Nc1ccc2c(c1)OCCO2
-3.8

Kindly indicate its recorded viability increase. Item: Cc1ccc(C2CC(=O)NC(SCCC(C)C)=C2C#N)cc1 (stereo unspecified)
-4.1

For CC(C)c1nnc(NC(=O)c2cccs2)s1 , write its viability increase.
0.84

Provide only the value of recorded viability increase for O=C(c1ccco1)c1nnn(Cc2ccccc2)c1-c1ccccc1
-2.38

Find the measured viability increase of COc1ccc(N2CCN(C(=O)c3c(-c4ccccc4)noc3C)CC2)cc1 and report it.
-2.79

Data origin: PubChem BioAssay
